Ref: ChEMBL document CHEMBL4715736

- Test system: SK-MEL-28
- Test Method Notes: Growth inhibition of human SK-MEL-28 cells assessed as cell growth at 100 uM incubated for 48 hrs by sulforhodamine B assay relative to control
- Type: functional
- Condition Context: read-out: Activity
Mark yes for growth at 100 µM under -20%, no if at or over.

Smiles	Label Value
CCc1ccccc1NC(=O)c1sc2nc3c(cc2c1N)C(=O)CCC3	no
Cc1ccc(NC(=O)c2sc3nc4c(cc3c2N)C(=O)CCC4)cc1C	no
Cc1cc(C)c(NC(=O)c2sc3nc4c(cc3c2N)CN(Cc2ccccc2)CC4)c(C)c1	yes
CCc1cccc(C)c1NC(=O)c1sc2nc3c(cc2c1N)C(=O)CCC3	no
CN1CCc2nc3sc(C(N)=O)c(N)c3c(-c3cccs3)c2C1	no
Cc1cccc(NC(=O)c2sc3nc4c(cc3c2N)C(=O)CCC4)c1	no
Nc1c(C(=O)Nc2ccccc2)sc2nc3c(cc12)CN(Cc1ccccc1)CC3	no
COc1cccc(NC(=O)c2sc3nc4c(cc3c2N)CN(Cc2ccccc2)CC4)c1	yes

---

- Test system: A498
- Test Method Notes: Growth inhibition of human A498 cells assessed as cell growth at 0.1 uM incubated for 48 hrs by sulforhodamine B assay relative to control
- Type: functional
- Condition Context: read-out: Activity

Smiles	Tested System	growth at 0.1 µM [%]
CCc1cccc(C)c1NC(=O)c1sc2nc3c(cc2c1N)C(=O)CCC3	A498	72
Cc1cc(C)c(NC(=O)c2sc3nc4c(cc3c2N)CN(Cc2ccccc2)CC4)c(C)c1	A498	91
Nc1c(C(=O)Nc2ccccc2)sc2nc3c(cc12)CN(Cc1ccccc1)CC3	A498	82
CCc1ccccc1NC(=O)c1sc2nc3c(cc2c1N)C(=O)CCC3	A498	72
CN1CCc2nc3sc(C(N)=O)c(N)c3c(-c3cccs3)c2C1	A498	111
Cc1ccc(NC(=O)c2sc3nc4c(cc3c2N)C(=O)CCC4)cc1C	A498	78
COc1cccc(NC(=O)c2sc3nc4c(cc3c2N)CN(Cc2ccccc2)CC4)c1	A498	84
Cc1cccc(NC(=O)c2sc3nc4c(cc3c2N)C(=O)CCC4)c1	A498	32

---

- Tested on: NCI-H226
- Test Method Notes: Growth inhibition of human NCI-H226 cells assessed as cell growth at 0.1 uM incubated for 48 hrs by sulforhodamine B assay relative to control
- Type: functional
- Condition Context: read-out: Activity
Recorded Metric: growth at 0.1 µM (%)

Smiles	Tested System	Recorded Metric	Quantitative Readout
Cc1ccc(NC(=O)c2sc3nc4c(cc3c2N)C(=O)CCC4)cc1C	NCI-H226	growth at 0.1 µM	88
Nc1c(C(=O)Nc2ccccc2)sc2nc3c(cc12)CN(Cc1ccccc1)CC3	NCI-H226	growth at 0.1 µM	96
COc1cccc(NC(=O)c2sc3nc4c(cc3c2N)CN(Cc2ccccc2)CC4)c1	NCI-H226	growth at 0.1 µM	87
CCc1cccc(C)c1NC(=O)c1sc2nc3c(cc2c1N)C(=O)CCC3	NCI-H226	growth at 0.1 µM	94
Cc1cc(C)c(NC(=O)c2sc3nc4c(cc3c2N)CN(Cc2ccccc2)CC4)c(C)c1	NCI-H226	growth at 0.1 µM	93
CN1CCc2nc3sc(C(N)=O)c(N)c3c(-c3cccs3)c2C1	NCI-H226	growth at 0.1 µM	89
CCc1ccccc1NC(=O)c1sc2nc3c(cc2c1N)C(=O)CCC3	NCI-H226	growth at 0.1 µM	86
Cc1cccc(NC(=O)c2sc3nc4c(cc3c2N)C(=O)CCC4)c1	NCI-H226	growth at 0.1 µM	94

---

TGI values by entry
- Test system: CCRF-CEM
- Test Method Notes: Growth inhibition of human CCRF-CEM cells incubated for 48 hrs by sulforhodamine B assay
- Format: functional

Smiles	TGI
CCc1ccccc1NC(=O)c1sc2nc3c(cc2c1N)C(=O)CCC3	> 100 µM
CN1CCc2nc3sc(C(N)=O)c(N)c3c(-c3cccs3)c2C1	> 100 µM
Cc1cc(C)c(NC(=O)c2sc3nc4c(cc3c2N)CN(Cc2ccccc2)CC4)c(C)c1	59.7 µM
CCc1cccc(C)c1NC(=O)c1sc2nc3c(cc2c1N)C(=O)CCC3	≥ 100 µM
Cc1cccc(NC(=O)c2sc3nc4c(cc3c2N)C(=O)CCC4)c1	> 100 µM
Cc1ccc(NC(=O)c2sc3nc4c(cc3c2N)C(=O)CCC4)cc1C	≥ 100 µM
COc1cccc(NC(=O)c2sc3nc4c(cc3c2N)CN(Cc2ccccc2)CC4)c1	> 100 µM
Nc1c(C(=O)Nc2ccccc2)sc2nc3c(cc12)CN(Cc1ccccc1)CC3	> 100 µM

---

- System: CAKI-1
- Test Method Notes: Growth inhibition of human CAKI-1 cells assessed as cell growth at 10 uM incubated for 48 hrs by sulforhodamine B assay relative to control
- Type: functional
- Condition Context: read-out: Activity

Smiles	Tested System	growth at 10 µM [%]
COc1ccc(S(=O)(=O)n2ccc(-c3ccc4c(c3)CCC(C)(C)O4)n2)cc1OC	CAKI-1	58.3
O=S(=O)(c1ccccc1)n1ccc(-c2ccc3c(c2)CCO3)n1	CAKI-1	75.3
COc1ccc(-c2ccn(S(=O)(=O)c3ccc(OC)cc3)n2)cc1	CAKI-1	66.2
COc1ccc(S(=O)(=O)n2ccc(-c3ccc4c(c3)CCC(C)(C)O4)n2)cc1	CAKI-1	63.3
Cc1cc(C)cc(S(=O)(=O)n2ccc(-c3ccc4c(c3)CCC(C)(C)O4)n2)c1	CAKI-1	72.5
COc1ccc(-c2ccn(S(=O)(=O)c3ccc(C)cc3)n2)cc1	CAKI-1	69.5
COc1cccc(NC(=O)c2sc3nc4c(cc3c2N)CN(Cc2ccccc2)CC4)c1	CAKI-1	53
CCc1cccc(C)c1NC(=O)c1sc2nc3c(cc2c1N)C(=O)CCC3	CAKI-1	38
CC1(C)CCc2cc(-c3ccn(S(=O)(=O)c4ccccc4)n3)ccc2O1	CAKI-1	62.9
Cc1cccc(NC(=O)c2sc3nc4c(cc3c2N)C(=O)CCC4)c1	CAKI-1	26
O=S(=O)(c1ccc(Br)cc1)n1ccc(-c2ccc(OCCCF)cc2)n1	CAKI-1	79.3
CC1(C)CCc2cc(-c3ccn(S(=O)(=O)c4ccc(Cl)cc4Cl)n3)ccc2O1	CAKI-1	83.8

---

- Tested on: UACC-257
- Test Method Notes: Growth inhibition of human UACC-257 cells incubated for 48 hrs by sulforhodamine B assay
- Format: functional
TGI values by entry

Smiles	TGI
CCc1cccc(C)c1NC(=O)c1sc2nc3c(cc2c1N)C(=O)CCC3	62.3 µM
COc1cccc(NC(=O)c2sc3nc4c(cc3c2N)CN(Cc2ccccc2)CC4)c1	> 100 µM
Cc1cccc(NC(=O)c2sc3nc4c(cc3c2N)C(=O)CCC4)c1	> 100 µM

---

growth at 0.01 µM values by entry
- System: NCI-H226
- Test Method Notes: Growth inhibition of human NCI-H226 cells assessed as cell growth at 0.01 uM incubated for 48 hrs by sulforhodamine B assay relative to control
- Type: functional
- Condition Context: read-out: Activity
Recorded Metric: growth at 0.01 µM (%)

Smiles	Quantitative Readout
CCc1cccc(C)c1NC(=O)c1sc2nc3c(cc2c1N)C(=O)CCC3	96
COc1cccc(NC(=O)c2sc3nc4c(cc3c2N)CN(Cc2ccccc2)CC4)c1	93
CCc1ccccc1NC(=O)c1sc2nc3c(cc2c1N)C(=O)CCC3	89
Cc1cccc(NC(=O)c2sc3nc4c(cc3c2N)C(=O)CCC4)c1	95
Cc1ccc(NC(=O)c2sc3nc4c(cc3c2N)C(=O)CCC4)cc1C	90
CN1CCc2nc3sc(C(N)=O)c(N)c3c(-c3cccs3)c2C1	93
Nc1c(C(=O)Nc2ccccc2)sc2nc3c(cc12)CN(Cc1ccccc1)CC3	98
Cc1cc(C)c(NC(=O)c2sc3nc4c(cc3c2N)CN(Cc2ccccc2)CC4)c(C)c1	92

---

TGI values by entry
- Tested on: SNB-19
- Test Method Notes: Growth inhibition of human SNB-19 cells incubated for 48 hrs by sulforhodamine B assay
- Type: functional
Recorded Metric: TGI

Smiles	Result
Cc1cc(C)c(NC(=O)c2sc3nc4c(cc3c2N)CN(Cc2ccccc2)CC4)c(C)c1	> 100 µM
CCc1ccccc1NC(=O)c1sc2nc3c(cc2c1N)C(=O)CCC3	> 100 µM
Cc1ccc(NC(=O)c2sc3nc4c(cc3c2N)C(=O)CCC4)cc1C	> 100 µM

---

- Test system: SF-295
- Test Method Notes: Growth inhibition of human SF-295 cells incubated for 48 hrs by sulforhodamine B assay
- Format: functional
Recorded Metric: LC50 (concentration killing 50% of cells)

Smiles	Result
CN1CCc2nc3sc(C(N)=O)c(N)c3c(-c3cccs3)c2C1	> 100 µM
CCc1cccc(C)c1NC(=O)c1sc2nc3c(cc2c1N)C(=O)CCC3	> 100 µM
Cc1ccc(NC(=O)c2sc3nc4c(cc3c2N)C(=O)CCC4)cc1C	> 100 µM
CCc1ccccc1NC(=O)c1sc2nc3c(cc2c1N)C(=O)CCC3	> 100 µM
Cc1cccc(NC(=O)c2sc3nc4c(cc3c2N)C(=O)CCC4)c1	> 100 µM
Cc1cc(C)c(NC(=O)c2sc3nc4c(cc3c2N)CN(Cc2ccccc2)CC4)c(C)c1	> 100 µM
Nc1c(C(=O)Nc2ccccc2)sc2nc3c(cc12)CN(Cc1ccccc1)CC3	> 100 µM
COc1cccc(NC(=O)c2sc3nc4c(cc3c2N)CN(Cc2ccccc2)CC4)c1	94.3 µM
